Values compiled from paper PMC5591402.

biological target: N2.4; assay: FP
Where no end group is shown, it is not given here.
OBSERVABLE: pKd
Numbers only, as −log10 of the molar value.

The reported pKd of the binder GYQDYEPEA (also: TAMRA fluorophore, position not given here) [TAMRA-labeled α-synuclein peptide] was 7.84
